target: Tie2(Y897S)(h) (Homo sapiens, UniProt Q02763, Y897S); assay: Kinase Profiling Assay; format: biochemical; settings: 100 μM peptide
Sequence (Q02763 23-1124 Y897S): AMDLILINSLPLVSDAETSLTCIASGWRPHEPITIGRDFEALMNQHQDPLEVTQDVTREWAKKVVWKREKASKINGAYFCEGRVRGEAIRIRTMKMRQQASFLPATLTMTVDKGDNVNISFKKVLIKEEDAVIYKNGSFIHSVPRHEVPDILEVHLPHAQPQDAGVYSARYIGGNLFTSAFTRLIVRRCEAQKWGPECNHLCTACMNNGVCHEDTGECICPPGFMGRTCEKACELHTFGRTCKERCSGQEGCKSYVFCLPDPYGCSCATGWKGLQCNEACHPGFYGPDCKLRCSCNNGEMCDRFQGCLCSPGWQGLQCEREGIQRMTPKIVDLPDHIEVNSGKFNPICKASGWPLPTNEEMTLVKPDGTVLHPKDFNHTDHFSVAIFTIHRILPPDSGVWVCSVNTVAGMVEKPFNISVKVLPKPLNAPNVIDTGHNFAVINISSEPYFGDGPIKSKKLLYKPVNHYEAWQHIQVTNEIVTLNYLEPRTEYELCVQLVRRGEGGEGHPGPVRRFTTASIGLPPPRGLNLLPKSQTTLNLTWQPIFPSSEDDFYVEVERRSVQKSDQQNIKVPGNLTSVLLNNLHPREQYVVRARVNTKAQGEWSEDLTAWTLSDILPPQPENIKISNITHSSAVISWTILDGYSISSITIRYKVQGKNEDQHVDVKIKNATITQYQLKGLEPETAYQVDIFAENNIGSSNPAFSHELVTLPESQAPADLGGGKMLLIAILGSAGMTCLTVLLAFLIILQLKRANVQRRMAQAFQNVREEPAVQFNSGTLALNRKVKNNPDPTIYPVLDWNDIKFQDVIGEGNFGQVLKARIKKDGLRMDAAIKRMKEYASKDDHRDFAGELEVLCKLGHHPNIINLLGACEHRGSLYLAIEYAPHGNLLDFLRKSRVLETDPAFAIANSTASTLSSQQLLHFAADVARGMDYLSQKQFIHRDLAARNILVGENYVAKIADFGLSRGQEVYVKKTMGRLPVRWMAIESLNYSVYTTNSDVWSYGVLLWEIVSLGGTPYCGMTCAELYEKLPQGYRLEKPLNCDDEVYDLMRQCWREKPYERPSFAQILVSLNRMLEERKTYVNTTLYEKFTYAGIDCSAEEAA
metric: Tie2(Y897S)(h) % activity (%)
Could you give me the number in %? Just the number is fine.

// Tie2(Y897S)(h) % activity value for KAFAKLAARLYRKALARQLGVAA [MMI-0400] : 87

// Tie2(Y897S)(h) % activity value for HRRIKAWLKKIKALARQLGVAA (Mammalian) [MMI-0500] : 80

// Tie2(Y897S)(h) % activity value for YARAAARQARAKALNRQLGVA (Mammalian) [MMI-0200] : 85

// Tie2(Y897S)(h) % activity value for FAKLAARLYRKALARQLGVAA [MMI-0300] : 83
